// data source = PubChem BioAssay

# measurement_notes: compound effects on lung adenocarcinoma cell viability – A549, calcein-AM fluorescence, 48 h, basal, profiling panel (AID 1162); further: test concentration not given here
# protocol_conditions: higher = more signal
Label fulfilled for high-side z-score (at or above -0.7) and not fulfilled for low-side z-score (below it).

Here's what some known entries look like.
compound	category_label
COc1cccc(C[C@H]2C[C@@H](CO[Si](C(C)C)(C(C)C)C(C)C)N3C(=O)[C@]4(C(C)=O)O[C@]23[C@H]2C(=O)N(C)C(=O)[C@H]24)c1	not fulfilled
CCCC=C(CCC)[C@@H](NS(=O)(=O)CC)c1ccccc1	not fulfilled
C=C(CCCC)/C(=C/C[C@@H](OC(=O)c1ccncc1)c1ccccc1OCCO)c1cc(C(=O)OC)ccc1OC	fulfilled
CCN(CC)c1ccc(N2CC=CC34O[C@@H]5/C=C\CCCOC(=O)C5[C@H]3C(=O)N(CCCCCO)[C@@H]4C2=O)cc1 (some centres not stated)	fulfilled
Cc1ccc(F)cc1S(=O)(=O)N[C@@H]1CCN(C(=O)c2ccc(OC(C)C)cc2)C1	fulfilled

Hello, I need to know if CC(C)C[C@@H]1NC(=O)[C@@]23C(=O)N[C@@H](Cc4ccccc4)C2[C@H](C)[C@@]2(C)O[C@H]2C3/C=C/C/C=C\CNC(=O)[C@@H]2CCCN2C1=O (some centres not stated) has measured z-score not below -0.7. Thanks!
fulfilled

* * *

# measurement_notes: probe aLefty1 binding on compound microarray – biochemical, small-molecule microarray, 635/667 nm fluorescence, primary screen (AID 1153);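 further: score merges spot fluorescence with signal-to-noise ratio from the scanned slide images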
# protocol_conditions: higher = more signal
Readings of composite z-score for the listed compounds

Any idea what its composite z-score is? The compound is Cc1ccc(S[C@]2(C(=O)O)CC(=O)N(Cc3ccccc3C(F)(F)F)[C@@H]2c2ccc(CO)cc2)cc1
-0.109

Any idea what its composite z-score is? The compound is COC(=O)c1c(CC[C@@H](CO)NC(=O)N[C@@H](C)Cn2cc(C3(O)CCCC3)nn2)oc(C(C)=O)c1C(=O)OC
0.0561

Any idea what its composite z-score is? The compound is COc1ccc(CCNC(=O)[C@@H]2c3ccccc3C(=O)N(Cc3ccccc3)[C@H]2c2ccc(CO)cc2)cc1
0.436

Any idea what its composite z-score is? The compound is COc1ccc([Si](C)(C)[C@@H]2[C@@H](CCO)O[C@]3(C(=O)N(Cc4ccc(N5C(=O)c6ccccc6Oc6ccccc65)cc4)c4ccccc43)[C@H]2C)cc1
0.0496

* * *

Readings of z-score for the listed molecules
# test_system: NADPH oxidase 5 (Homo sapiens) (UniProt Q96PH1)
# Sequence (Q96PH1 whole entry, looked up): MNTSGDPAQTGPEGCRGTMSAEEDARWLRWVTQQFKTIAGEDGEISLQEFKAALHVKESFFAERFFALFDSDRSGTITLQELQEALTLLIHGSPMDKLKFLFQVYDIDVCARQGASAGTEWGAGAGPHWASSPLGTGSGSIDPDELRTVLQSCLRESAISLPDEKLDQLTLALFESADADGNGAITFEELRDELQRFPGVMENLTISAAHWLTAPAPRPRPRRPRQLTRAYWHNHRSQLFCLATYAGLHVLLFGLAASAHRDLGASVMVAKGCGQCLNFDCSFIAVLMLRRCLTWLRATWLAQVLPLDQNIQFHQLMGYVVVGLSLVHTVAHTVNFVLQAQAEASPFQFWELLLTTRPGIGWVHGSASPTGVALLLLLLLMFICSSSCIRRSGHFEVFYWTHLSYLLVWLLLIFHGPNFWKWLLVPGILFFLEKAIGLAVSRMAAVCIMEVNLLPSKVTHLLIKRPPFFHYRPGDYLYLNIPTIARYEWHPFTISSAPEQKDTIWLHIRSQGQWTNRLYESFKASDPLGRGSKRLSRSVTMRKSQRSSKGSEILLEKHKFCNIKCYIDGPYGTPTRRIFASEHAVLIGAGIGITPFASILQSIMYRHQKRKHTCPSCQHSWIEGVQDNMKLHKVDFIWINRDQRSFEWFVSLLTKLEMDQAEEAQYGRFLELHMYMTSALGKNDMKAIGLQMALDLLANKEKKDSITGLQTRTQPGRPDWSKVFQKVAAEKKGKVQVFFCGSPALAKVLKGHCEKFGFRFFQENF
# measurement_notes: compounds shifting NOX5 Amplex Red fluorescence – cell-based, HEK293-NOX5, NOX inhibitor project, primary screen (AID 1161)
# protocol_conditions: HEK293-NOX5, ionomycin, 45 min, higher = more signal
Lab note: record just the number, no unit beside it.

Use these answered entries as a reference point.
molecule	z-score
O=C1NC(=O)C2C1C=CC(C(O)c1ccc(-c3ccccc3)s1)N2Nc1ccccn1 (stereo not given)	-1.44
Cc1ccccc1C(O)C1C=CC2C(=O)N(C)C(=O)C2N1Nc1ccc([N+](=O)[O-])cc1[N+](=O)[O-] (stereo not given)	0.487
N#Cc1ccc(NN2C(C(O)c3ccccc3)C=CC3C(=O)N(c4ccccc4)C(=O)C32)cc1 (stereo not given)	-3.44
CCCCC(O)C1C=CC2C(=O)N(Cc3ccccc3)C(=O)C2N1n1cnnc1 (stereo not given)	-3.3

Then this molecule:
Any idea what its z-score is? The molecule is Cc1ccc(C(C)CC(O)C2C=CC3C(=O)N(Cc4ccccc4)C(=O)C3N2n2cnnc2)o1 (stereo not given)
-2.17
